- study.target: Neutrophil elastase (Homo sapiens, UniProt P08246)
- assay: Inhibitory activity against human leukocyte elastase at 10e-9 M

| smiles.str | IC50, nM |
| --- | --- |
| C=C(C)C(=O)Oc1ccc(C(=O)c2ccccc2)cc1 | 1900 |

---

- study.target: Neutrophil elastase (Homo sapiens, UniProt P08246)
- Sequence (P08246 whole entry): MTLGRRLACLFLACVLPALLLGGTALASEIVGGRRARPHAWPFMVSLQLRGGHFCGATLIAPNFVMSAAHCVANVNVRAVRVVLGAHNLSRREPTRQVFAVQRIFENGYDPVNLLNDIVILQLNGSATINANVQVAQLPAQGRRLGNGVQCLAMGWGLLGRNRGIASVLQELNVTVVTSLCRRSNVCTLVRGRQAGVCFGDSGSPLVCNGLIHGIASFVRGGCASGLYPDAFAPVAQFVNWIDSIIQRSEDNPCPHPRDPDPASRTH
- assay: Inhibitory activity against human leukocyte elastase at 10e-5 M
pIC50: −log10 of the molar value.

| compound | pIC50 |
| --- | --- |
| CC(=O)Oc1ccc(C(=O)c2ccccc2)cc1 | 4.80 |
| CC(C)(C)C(=O)OCc1cc(=O)c(OC(=O)C(C)(C)C)co1 | 4.44 |
| O=C(c1ccccc1)c1ccc(OC(=O)C2CCCCC2)cc1 | 4.70 |
| CC(=O)NC(C)(C)C(=O)Oc1ccc(C(=O)c2ccccc2)cc1 | 4.72 |
| CC(C)(C)C(=O)Oc1coc(COC2CCOCC2)cc1=O | 4.37 |
| CCCCCCCC/C=C/CCCCCCCC(=O)OCc1cc(=O)c(OC(=O)[C@]23C[C@H]4C[C@H](C[C@H](C4)C2)C3)co1 | 4.10 |
| CC(C(=O)O)c1cc(C(=O)c2ccccc2)ccc1OC(=O)C(C)(C)C (configuration not stated) | 4.92 |
